target: Acetylcholinesterase (Electrophorus electricus); test: Inhibition of electric eel AChE using acetylthiocholine iodide as substrate preincubated for 15 mins followed by substrate addition measured every 15 secs for 5 to 10 mins by Ellman's method
Sequence (O42275 whole entry): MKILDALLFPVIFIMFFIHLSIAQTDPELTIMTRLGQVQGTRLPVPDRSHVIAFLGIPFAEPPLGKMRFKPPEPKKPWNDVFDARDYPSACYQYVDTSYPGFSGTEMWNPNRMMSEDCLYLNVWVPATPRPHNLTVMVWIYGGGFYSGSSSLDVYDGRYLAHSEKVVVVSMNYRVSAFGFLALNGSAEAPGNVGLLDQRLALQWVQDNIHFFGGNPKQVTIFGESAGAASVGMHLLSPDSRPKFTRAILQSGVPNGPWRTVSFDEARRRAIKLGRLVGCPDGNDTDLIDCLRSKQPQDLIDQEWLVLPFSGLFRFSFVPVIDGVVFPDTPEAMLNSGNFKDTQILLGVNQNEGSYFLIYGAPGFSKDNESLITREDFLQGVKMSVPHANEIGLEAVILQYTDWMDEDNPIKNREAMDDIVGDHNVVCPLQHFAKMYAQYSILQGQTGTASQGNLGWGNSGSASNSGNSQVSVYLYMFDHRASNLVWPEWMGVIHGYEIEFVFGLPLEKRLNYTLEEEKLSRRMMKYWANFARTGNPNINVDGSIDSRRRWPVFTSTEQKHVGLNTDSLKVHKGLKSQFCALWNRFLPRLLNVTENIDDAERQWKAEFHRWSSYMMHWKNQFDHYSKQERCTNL
IC50 vs 10 µM: less than gives Fulfilled; not less than gives Not fulfilled.

CCOC(=O)C1=C(C)NC(=O)NC1c1ccccc1 (configuration not stated)
Fulfilled
Cc1ccc(C(=O)[Se]Cc2ccccc2)cc1
Not fulfilled
CCOC(=O)C1=C(CSC(=O)c2ccc(C)cc2)NC(=O)NC1c1ccccc1 (configuration not stated)
Not fulfilled
CCOC(=O)C1=C(C[Se]C(=O)c2ccc(C)cc2)NC(=O)NC1c1ccccc1 (configuration not stated)
Fulfilled
CCOC(=O)C1=C(C[Se]C(C)=O)NC(=O)NC1c1ccccc1 (configuration not stated)
Not fulfilled
CCOC(=O)C1=C(C[Se]C(=O)c2cccc(C(=O)[Se]CC3=C(C(=O)OCC)C(c4ccccc4)NC(=O)N3)c2)NC(=O)NC1c1ccccc1 (configuration not stated)
Not fulfilled

Consider now this further compound.
In: hey, is IC50 for CCOC(=O)C1=C(C[Se]C(=O)c2ccc(C)cc2)NC(=O)NC1c1ccc(O)c(OC)c1 (configuration not stated) lower than 10 µM or not?
Out: Not fulfilled

###

test: Metal chelating activity assessed as compound-Fe2+ complex formation after 10 mins by UV-Vis spectrophotometer; format: physicochemical
outcomeMeasure: EC50 (µM)
Please respond with the number in µM and leave the unit unwritten.

Guide cases for EC50, answers given:
CCOC(=O)C1=C(CSC(=O)c2ccc(C)cc2)NC(=O)NC1c1ccccc1 (centres undefined)
20.2
CCOC(=O)C1=C(C[Se]C(=O)c2ccc(C)cc2)N(C)C(=O)NC1c1cccc([N+](=O)[O-])c1 (centres undefined)
32.8
CCOC(=O)C1=C(C[Se]C(=O)c2ccc(C)cc2)NC(=O)NC1c1ccccc1 (centres undefined)
10.5

Summary for this compound, CCOC(=O)C1=C(C)NC(=O)NC1c1ccccc1 (centres undefined) : EC50 is 15.8
